Listing: pIC50 of selected molecules
- assayedTarget: Aβ1–42 peptide (Homo sapiens)
- Sequence (P05067 672-713): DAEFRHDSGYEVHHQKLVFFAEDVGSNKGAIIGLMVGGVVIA
- protocolDescription: ThT fluorescence assay for self-mediated Aβ1–42 aggregation
pIC50: −log10 of the molar value.
measurementLabel: pIC50

givenSmiles	readoutValue
O=C(/C=C/c1ccc(-c2ccccc2)cc1)Nc1nc2ccc(O)cc2s1	4.64
O=C(Nc1nc2ccc(O)cc2s1)c1cc(O)c(O)c(O)c1	4.95
NS(=O)(=O)c1ccc(NC(=O)/C=C/c2ccc(-c3ccccc3)cc2)cc1	4.71
COc1cc(/C=C/C(=O)Nc2ccc(S(N)(=O)=O)cc2)ccc1OCc1ccccc1	4.85

====

- assayedTarget: human MAO-A (Homo sapiens, UniProt P21397)
- Sequence (P21397 whole entry): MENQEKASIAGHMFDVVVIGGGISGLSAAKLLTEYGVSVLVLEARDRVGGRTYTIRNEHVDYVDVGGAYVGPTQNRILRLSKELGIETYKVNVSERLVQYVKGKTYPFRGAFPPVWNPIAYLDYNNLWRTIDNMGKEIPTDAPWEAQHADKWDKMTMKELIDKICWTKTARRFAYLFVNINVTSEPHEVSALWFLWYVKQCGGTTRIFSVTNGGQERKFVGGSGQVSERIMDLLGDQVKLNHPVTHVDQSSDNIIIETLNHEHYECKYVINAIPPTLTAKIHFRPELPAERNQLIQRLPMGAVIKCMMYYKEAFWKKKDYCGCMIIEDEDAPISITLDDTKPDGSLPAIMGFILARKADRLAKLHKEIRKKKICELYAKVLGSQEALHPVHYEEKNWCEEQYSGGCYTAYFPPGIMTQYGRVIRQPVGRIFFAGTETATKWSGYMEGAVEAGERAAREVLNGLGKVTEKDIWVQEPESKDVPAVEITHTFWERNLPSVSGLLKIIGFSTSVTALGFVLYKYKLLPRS
- protocolDescription: MAO-A inhibition assay
- Assay type: biochemical
- conditionDetails: read-out: IC50 (μM) ± SEM MAO-A; mean ± SEM; n = 3

givenSmiles	resultUnits	IC50
COc1cc(/C=C/C(=O)Nc2nc3ccc(O)cc3s2)ccc1OCc1ccccc1	µM	19.4

====

- assayedTarget: Aβ1–42 peptide (Homo sapiens)
- protocolDescription: ThT fluorescence assay for self-mediated Aβ1–42 aggregation
- Format: biochemical
- conditionDetails: after a 24-hour equimolar administration, ThT fluorescence (Fig. 4)

compound	inhibition of amyloid beta fibrils
COc1cc(/C=C/C(=O)CC(=O)/C=C/c2ccc(O)c(OC)c2)ccc1O [Curcumin, reference compound]	around 60%
O=C(Nc1nc2ccc(O)cc2s1)c1cc(O)c(O)c(O)c1 [Compound 28]	around 60%
COc1cc(/C=C/C(=O)Nc2ccc(S(N)(=O)=O)cc2)ccc1OCc1ccccc1 [Compound 25]	~50%

====

- Tested on: SH-SY5Y cells
- protocolDescription: SH-SY5Y neuroblastoma cell toxicity
- Assay type: cell-based, human
- conditionDetails: 10–100 μM, 48 h incubation, MTT
measurementLabel: neurotoxicity / cytotoxicity on SH-SY5Y cells

molecule	assayedTarget	readoutValue
C#CCN[C@@H]1CCc2ccccc21 [rasigiline, rasagiline, reference compound]	SH-SY5Y cells	no cytotoxicity
Cc1c(C)c2c(c(C)c1O)CCC(C)(C(=O)O)O2 (stereo not drawn) [trolox, reference compound]	SH-SY5Y cells	no cytotoxicity

====

- assayedTarget: eqBChE (Equus caballus, UniProt P81908)
- Sequence (P81908 whole entry): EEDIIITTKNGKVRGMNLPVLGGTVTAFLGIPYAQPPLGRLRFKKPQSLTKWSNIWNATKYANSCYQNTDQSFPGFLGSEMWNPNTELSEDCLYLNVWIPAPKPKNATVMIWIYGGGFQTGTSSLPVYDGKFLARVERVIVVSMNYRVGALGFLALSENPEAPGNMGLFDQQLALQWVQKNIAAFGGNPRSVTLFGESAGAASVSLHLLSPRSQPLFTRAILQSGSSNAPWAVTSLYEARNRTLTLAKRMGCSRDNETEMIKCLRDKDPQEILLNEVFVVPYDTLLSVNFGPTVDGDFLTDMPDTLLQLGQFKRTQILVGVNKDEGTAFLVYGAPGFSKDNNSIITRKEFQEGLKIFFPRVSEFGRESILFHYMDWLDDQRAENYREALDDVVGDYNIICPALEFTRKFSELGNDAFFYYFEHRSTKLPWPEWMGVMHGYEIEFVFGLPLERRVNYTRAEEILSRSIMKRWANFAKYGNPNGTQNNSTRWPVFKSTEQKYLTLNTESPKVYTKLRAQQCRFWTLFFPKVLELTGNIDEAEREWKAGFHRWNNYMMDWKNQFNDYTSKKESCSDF
- protocolDescription: biochemical

givenSmiles	IC50
O=C(/C=C/c1ccc(-c2ccccc2)cc1)Nc1nc2ccc(O)cc2s1	15.6 µM
COc1cc(/C=C/C(=O)Nc2ccc(S(N)(=O)=O)cc2)ccc1O	58.2 µM
O=C(Nc1nc2ccc(O)cc2s1)c1cc(O)c(O)c(O)c1	9.25 µM

====

- assayedTarget: human MAO-B (Homo sapiens)
- Sequence (P27338 1-520): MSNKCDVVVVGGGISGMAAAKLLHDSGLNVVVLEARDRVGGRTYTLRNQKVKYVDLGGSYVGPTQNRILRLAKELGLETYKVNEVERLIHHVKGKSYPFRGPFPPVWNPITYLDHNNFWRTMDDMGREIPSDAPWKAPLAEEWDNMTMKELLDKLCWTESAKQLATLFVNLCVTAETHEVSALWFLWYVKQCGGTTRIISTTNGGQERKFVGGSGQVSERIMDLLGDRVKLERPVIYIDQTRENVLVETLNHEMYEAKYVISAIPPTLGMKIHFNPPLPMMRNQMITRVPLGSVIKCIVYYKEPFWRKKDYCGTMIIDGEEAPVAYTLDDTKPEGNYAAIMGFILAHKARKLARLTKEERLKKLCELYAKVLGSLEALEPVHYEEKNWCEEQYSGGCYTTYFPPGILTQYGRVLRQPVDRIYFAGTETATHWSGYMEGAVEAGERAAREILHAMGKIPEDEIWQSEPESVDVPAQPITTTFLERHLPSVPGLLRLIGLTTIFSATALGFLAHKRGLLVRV
- protocolDescription: MAO-B inhibition assay
- Format: biochemical
Note to self: IC50 under 200 nM means TRUE, ties and anything higher get FALSE.

molecule	assayedTarget	assignedCategory
CC(NC(=O)/C=C/c1ccc(-c2ccccc2)cc1)C(N)=O (stereo not drawn)	human MAO-B (Homo sapiens)	FALSE
COc1cc(/C=C/C(=O)Nc2ccc(S(N)(=O)=O)cc2)ccc1O	human MAO-B (Homo sapiens)	TRUE
COc1cc(/C=C/C(=O)NC(C)C(N)=O)ccc1O (stereo not drawn)	human MAO-B (Homo sapiens)	FALSE
COc1cc(/C=C/C(=O)Nc2ccc(S(N)(=O)=O)cc2)ccc1OCc1ccccc1	human MAO-B (Homo sapiens)	TRUE
NS(=O)(=O)c1ccc(NC(=O)c2cc(O)c(O)c(O)c2)cc1	human MAO-B (Homo sapiens)	FALSE
O=C(Nc1nc2ccc(O)cc2s1)c1cc(O)c(O)c(O)c1	human MAO-B (Homo sapiens)	FALSE
COc1cc(/C=C/C(=O)Nc2nc3ccc(O)cc3s2)ccc1O	human MAO-B (Homo sapiens)	FALSE
CC(NC(=O)c1cc(O)c(O)c(O)c1)C(N)=O (stereo not drawn)	human MAO-B (Homo sapiens)	FALSE
NS(=O)(=O)c1ccc(NC(=O)/C=C/c2ccc(-c3ccccc3)cc2)cc1	human MAO-B (Homo sapiens)	FALSE
